Item-by-item account of AUC(0-t)
experimental_details: Pharmacokinetic assay in SD rats (plasma and brain tissue)
Format: in vivo
test_settings: rat, po; Brain, male SD rats, p.o. 5 mg/kg; read-out: Area under curve AUC0-t
measured_quantity: AUC(0-t) (ng·h/mL)

C[C@@H]1c2nnc(-c3nc(Cl)ns3)n2CCN1C(=O)c1ccc(Cl)cc1; 2340
C[C@@H]1c2nnc(-c3nc4cnc(Cl)cc4s3)n2CCN1C(=O)c1ccc(F)cc1; 4200
C[C@@H]1c2nnc(-c3nc4cc(F)c(F)cc4s3)n2CCN1C(=O)c1ccc(F)cc1; 3230
[2H]c1cc(C(=O)N2CCn3c(-c4nc(Cl)ns4)nnc3[C@H]2C)ccc1F; 2710

src = patent US20230271969A1
